Just for reference, ChEMBL document CHEMBL1124016 is where these values come from.

Target: Serotonin 2 (5-HT2) receptor (Rattus norvegicus, UniProt P30994+P08909+P14842)
Experiment: Inhibition of [3H]spiperone binding to 5-hydroxytryptamine 2 receptor from rat cortical membranes
Type: cell membranes, Membrane
Listing: IC50 of selected compounds
Supply the numeric figure in nM, leaving out any unit text.

The examples below pair each entry with its known result.
query: Look at this compound and give its reported IC50. O=C(O)/C=C\C(=O)O.O=C(O)/C=C\C(=O)O.O=C1NCCN1CCN1CCN(C2CC(c3ccccc3)c3ccccc32)CC1 (centres undefined)
result: 12

query: What would you report for O=C1NCCN1CCN1CCN(C2CC(c3ccc(F)cc3)c3ccc(F)cc32)CC1 (centres undefined) ?
result: 6.5

Let us examine a further case.
query: Look at this compound and give its reported IC50. `O=C(O)/C=C\C(=O)O.O=C(O)/C=C\C(=O)O.O=C1NCCN1CCN1CCN([C@H]2C[C@H](c3ccc(F)cc3)c3ccc(F)cc32)CC1`
result: 320
